Target: UniProtKB P35637
Sequence (P35637 1-526): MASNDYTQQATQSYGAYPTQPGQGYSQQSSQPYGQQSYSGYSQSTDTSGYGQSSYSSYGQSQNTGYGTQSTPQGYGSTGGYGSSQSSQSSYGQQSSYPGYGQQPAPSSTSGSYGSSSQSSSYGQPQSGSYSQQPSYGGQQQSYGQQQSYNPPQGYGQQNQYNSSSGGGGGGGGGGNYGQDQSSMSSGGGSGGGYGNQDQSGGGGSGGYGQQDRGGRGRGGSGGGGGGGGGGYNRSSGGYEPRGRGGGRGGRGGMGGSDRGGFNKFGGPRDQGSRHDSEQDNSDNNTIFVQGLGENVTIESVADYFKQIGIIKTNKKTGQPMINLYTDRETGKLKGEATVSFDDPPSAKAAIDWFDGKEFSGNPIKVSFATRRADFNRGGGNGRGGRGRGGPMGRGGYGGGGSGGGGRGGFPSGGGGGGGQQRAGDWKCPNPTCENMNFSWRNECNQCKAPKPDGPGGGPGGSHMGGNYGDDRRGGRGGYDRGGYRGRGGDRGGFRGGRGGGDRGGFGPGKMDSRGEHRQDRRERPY
Test: Fluorescence imaging of dye partitioning in FUS-SNAP condensates (I-in, I-out)
Assay type: physicochemical
Conditions: outside FUS-SNAP condensate; 10 μM dye, 5 μM protein; image 2; one day of experiments
Structures can show the parent of a compound that is named as a salt.
PROPERTY_NAME: Intensity Outside with Dye 2

Examples from the recorded data:
CCN(CC)c1ccc2c(-c3ccccc3C(=O)O)c3ccc(=[N+](CC)CC)cc-3oc2c1 : 508.3
CC(=O)c1cc2cc3c4c(c2oc1=O)CCCN4CCC3 : 5118.6

[1] N=C(N)c1ccc(-c2cc3ccc(C(=N)N)cc3[nH]2)cc1
[2] O=C([O-])c1ccccc1C1=c2cc3c4c(c2Oc2c1cc1c5c2CCCN5CCC1)CCC[N+]=4CCC3 [Dye 17, Rhodamine 101 inner salt]
Which item exceeds the other in Intensity Outside with Dye 2, 1 or 2 ? # respond with the chosen item's label
2

* * *

biological target: FUS-SNAP condensates (Homo sapiens); assay: Fluorescence imaging of dye partitioning in FUS-SNAP condensates (I-in, I-out); type: physicochemical; details: I-in:I-out; Day 1; 10 μM dye
PROPERTY_NAME: Ratio of intensity inside:outside FUS-SNAP Condensates Day 1

O=C(CCCC[C@@H]1SCC2NC(=O)NC21)NCCNC(=O)c1ccc(-c2c3ccc(=O)cc-3oc3ccc(O)cc23)c(C(=O)O)c1 (stereo partly shown) : 2.1

[a] O=C(O)c1cc2cc3c4c(c2oc1=O)CCCN4CCC3
[b] N#CC1=c2cc3c4c(c2Oc2c1cc1c5c2CCCN5CCC1)CCC[N+]=4CCC3
[c] CC/N=c1/cc2oc3cc(NCC)c(C)cc3c(-c3ccccc3C(=O)NCCOCCOCCN)c-2cc1C.O=C(O)C(F)(F)F
Falling order of Ratio of intensity inside:outside FUS-SNAP Condensates Day 1, please. Field: ranking. Enter the labels in the order requested.
c, b, a

* * *

Biological target: PGL-3 condensates (Caenorhabditis elegans)
Sequence (G5EBV6 1-693): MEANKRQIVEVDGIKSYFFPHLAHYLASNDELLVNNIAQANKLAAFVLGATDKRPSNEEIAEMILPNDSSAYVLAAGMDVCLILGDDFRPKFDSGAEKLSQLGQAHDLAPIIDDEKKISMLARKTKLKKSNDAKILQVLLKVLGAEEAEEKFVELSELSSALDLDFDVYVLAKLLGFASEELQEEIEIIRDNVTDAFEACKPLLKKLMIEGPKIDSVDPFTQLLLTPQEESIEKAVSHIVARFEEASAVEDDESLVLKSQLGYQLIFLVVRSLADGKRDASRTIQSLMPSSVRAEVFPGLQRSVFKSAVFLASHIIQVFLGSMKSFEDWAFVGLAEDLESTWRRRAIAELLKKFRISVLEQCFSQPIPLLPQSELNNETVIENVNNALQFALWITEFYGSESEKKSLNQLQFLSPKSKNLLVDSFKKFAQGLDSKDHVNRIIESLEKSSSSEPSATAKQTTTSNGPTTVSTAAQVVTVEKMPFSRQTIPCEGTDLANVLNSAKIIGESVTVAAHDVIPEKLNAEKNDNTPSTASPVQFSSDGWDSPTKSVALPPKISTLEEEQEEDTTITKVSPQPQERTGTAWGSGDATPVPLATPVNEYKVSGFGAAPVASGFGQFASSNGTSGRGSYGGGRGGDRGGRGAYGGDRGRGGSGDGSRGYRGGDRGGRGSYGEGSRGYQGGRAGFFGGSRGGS
Assay: Fluorescence imaging of dye partitioning in PGL-3 condensates (I-in, I-out)
Format: physicochemical
Details: outside PGL-3 condensate; background corrected; one day of experiments
Description: All dye-stocks were stored as 1 mM solutions in 100% DMSO. The dyes were dissolved in dilution buffer (DB: 14.7 mM Tris, pH 7.25, 1 mM DTT) to yield 11.765 μM dye in 1.1765 DMSO. 17 μl of dye was distributed in a 384 well non-binding plate (Greiner). […] A spinning disk confocal microscope was used to acquire images of the samples. […] The laser power was set to 20% and the exposure times were adjusted to the fluorescence emission intensity specific for each dye. […]
Counter-ions that a name gives are not always drawn.
PROPERTY_NAME: Intensity Outside (Dye-No Dye)

[a] O=C1OC2(c3ccc(O[C@@H]4O[C@H](CO)[C@H](O)[C@H](O)[C@H]4O)cc3Oc3cc(O[C@@H]4O[C@H](CO)[C@H](O)[C@H](O)[C@H]4O)ccc32)c2ccccc21 [Dye 12, Fluorescein di(β-D-galacto-pyranoside)]
[b] O=C(O)c1cc2cc3c4c(c2oc1=O)CCCN4CCC3
[c] O=C([O-])c1ccccc1C1=c2cc3c4c(c2Oc2c1cc1c5c2CCCN5CCC1)CCC[N+]=4CCC3 [Dye 17, Rhodamine 101 inner salt]
[d] COC(=O)c1ccccc1-c1c2ccc(=N)cc-2oc2cc(N)ccc12.Cl
[e] O=c1cc(C(F)(F)F)c2ccc(O)cc2o1 [Dye 2, 7-Hydroxy-4-(trifluoromethyl)-coumarin]
Sort the listed entries by Intensity Outside (Dye-No Dye), smallest first. Dear reader, please state the labels in the requested order.
a, e, b, d, c

[P] O=C1OC2(c3ccc(O)cc3Oc3cc(O)ccc32)c2ccccc21
[Q] CC(=O)Oc1ccc2c(c1)Oc1cc(OC(C)=O)ccc1C21OC(=O)c2ccccc21 [Dye 9, Fluorescein diacetate]
Select the item with the higher value of Intensity Outside (Dye-No Dye) from the options P and Q listed. Reply with the label of the item you choose.
P
(P: 4060.8, Q: 106.3)

[I] CC(=O)N[C@H]1[C@H](Oc2ccc3c(c2)Oc2cc(O)ccc2C32OC(=O)c3ccccc32)O[C@H](CO)[C@H](O)[C@@H]1O (some centres unmarked)
[II] CC(=O)c1cc2cc3c4c(c2oc1=O)CCCN4CCC3
Between the entries labelled I and II , which has a larger Intensity Outside (Dye-No Dye) value on record? Bench note: the answer is the label of the chosen record.
I
(I: 1230.0, II: 58.6)

[A] N=C(N)c1ccc(-c2cc3ccc(C(=N)N)cc3[nH]2)cc1
[B] CC/N=c1/cc2oc3cc(NCC)c(C)cc3c(-c3ccccc3C(=O)NCCOCCOCCN)c-2cc1C.O=C(O)C(F)(F)F
Of A versus B , which is the one with smaller reported Intensity Outside (Dye-No Dye)? Pick one and reply with its label.
A
(A: 48.4, B: 555.7)

* * *

target: UniProt P35637; experiment: Fluorescence imaging of dye partitioning in FUS-SNAP condensates (I-in, I-out); type: physicochemical; conditions: inside FUS-SNAP condensate; 10 μM dye, 5 μM protein; image 3; one day of experiments
Counter-ions that a name gives are not always drawn.
PROPERTY_NAME: Intensity Inside with Dye 3

Sample records with Intensity Inside with Dye 3:
N=C(N)c1ccc(-c2cc3ccc(C(=N)N)cc3[nH]2)cc1 [Dye 1, DAPI] : 628.8
O=C(O)c1cc2cc3c4c(c2oc1=O)CCCN4CCC3 [Dye 3, Coumarin 343] : 3804.4
O=C([O-])c1ccccc1C1=c2cc3c4c(c2Oc2c1cc1c5c2CCCN5CCC1)CCC[N+]=4CCC3 [Dye 17, Rhodamine 101 inner salt] : 4511.0

[I] O=c1cc(C(F)(F)F)c2ccc(O)cc2o1 [Dye 2, 7-Hydroxy-4-(trifluoromethyl)-coumarin]
[II] CC/N=c1/cc2oc3cc(NCC)c(C)cc3c(-c3ccccc3C(=O)NCCOCCOCCN)c-2cc1C.O=C(O)C(F)(F)F [Dye 15]
[III] O=C1OC2(c3ccc(O[C@@H]4O[C@H](CO)[C@H](O)[C@H](O)[C@H]4O)cc3Oc3cc(O[C@@H]4O[C@H](CO)[C@H](O)[C@H](O)[C@H]4O)ccc32)c2ccccc21 [Dye 12, Fluorescein di(β-D-galacto-pyranoside)]
[IV] CC(=O)N[C@H]1[C@H](Oc2ccc3c(c2)Oc2cc(O)ccc2C32OC(=O)c3ccccc32)O[C@H](CO)[C@H](O)[C@@H]1O (stereo partly shown) [Dye 5]
Order field: Intensity Inside with Dye 3 | Direction: descending (largest first) Please write the labels in the order that was asked for.
II, IV, III, I
